Where these numbers come from: patent US10208019B2

target: human GLP-1R (Homo sapiens (Human), UniProt P43220, L260F); assay: CHO GLP-1R Clone C6—Assay 2: HTRF cAMP cell-based functional agonist assay (low GLP-1R density); conditions: CHO GLP-1R Clone C6; relative to saturating concentration of full agonist GLP-1 (1 μM); arithmetic mean
Sequence (P43220 24-463 L260F): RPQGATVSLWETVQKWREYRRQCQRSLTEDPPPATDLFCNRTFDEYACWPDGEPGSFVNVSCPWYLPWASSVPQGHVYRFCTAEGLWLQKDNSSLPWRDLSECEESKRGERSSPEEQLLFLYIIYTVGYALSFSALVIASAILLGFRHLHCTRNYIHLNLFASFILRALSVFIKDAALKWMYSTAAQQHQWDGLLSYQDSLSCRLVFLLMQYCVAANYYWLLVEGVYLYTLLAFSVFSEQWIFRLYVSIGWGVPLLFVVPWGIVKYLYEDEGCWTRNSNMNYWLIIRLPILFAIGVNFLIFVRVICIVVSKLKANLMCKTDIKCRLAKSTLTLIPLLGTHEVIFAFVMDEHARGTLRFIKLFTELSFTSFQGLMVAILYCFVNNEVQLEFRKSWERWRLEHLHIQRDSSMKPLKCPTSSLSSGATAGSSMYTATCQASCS
measuredAttribute: Assay 2 Emax (%)
Numbers only, in %.

Please review the entries below; each comes with its answer.
C[C@H]1CN(c2cccc(OCc3ccc(C#N)cc3F)n2)CCN1Cc1nc2ccc(C(=O)O)cc2n1CC1CCCO1 (single isomer, unassigned; diastereomer 1) [Example 14A-11] : 71
N#Cc1ccc(COc2cccc(C3CCN(Cc4nc5ccc(C(=O)O)cc5n4CC4CCCO4)CC3)n2)cc1 (single isomer, unassigned; enantiomer 2) [Example 14A-02] : 69

Query: For the compound shown here, N#Cc1ccc(COc2cccc(C3CCN(Cc4nc5ccc(C(=O)O)cc5n4CC4CCCO4)CC3)n2)cc1 (single isomer, unassigned; enantiomer 1) [Example 14A-01] , give the reported Assay 2 Emax (%).
Result: 89
